Values compiled from the supplement of paper PMC10307832.

Can you tell me relative viability for the items I'm about to list?
system: HOP-62; assay: relative viability (nuclei count vs DMSO), 5 days (fraction); higher = more cells survive; settings: first compound 0.5 µM
Lab note: jot down the number only; don't add units.

query: Return value of relative viability for input Nc1ccn([C@@H]2O[C@H](CO)[C@@H](O)[C@@H]2O)c(=O)n1 [Cytarabine] + N=C(N)NC(=N)NCCc1ccccc1 [Phenformin] (partner 250 µM) , no commentary.
result: 0.152

query: Return value of relative viability for input Nc1ccn([C@@H]2O[C@H](CO)[C@@H](O)[C@@H]2O)c(=O)n1 [Cytarabine] + Cc1nc(Nc2ncc(C(=O)Nc3c(C)cccc3Cl)s2)cc(N2CCN(CCO)CC2)n1 [Dasatinib] (partner 0.075 µM) , no commentary.
result: 0.11

query: Return value of relative viability for input COc1cc2nccc(Oc3ccc(NC(=O)Nc4cc(C)on4)c(Cl)c3)c2cc1OC [Tivozanib] + COc1cc2c(Oc3ccc(NC(=O)C4(C(=O)Nc5ccc(F)cc5)CC4)cc3F)ccnc2cc1OCCCN1CCOCC1 [Foretinib] (partner 0.25 µM) , no commentary.
result: 1.06

query: Return value of relative viability for input COc1cc2nccc(Oc3ccc(NC(=O)Nc4cc(C)on4)c(Cl)c3)c2cc1OC [Tivozanib] + Nc1nc2[nH]cc(CCc3ccc(C(=O)N[C@@H](CCC(=O)O)C(=O)O)cc3)c2c(=O)[nH]1 [Pemetrexed] (partner 0.2 µM) , no commentary.
result: 0.232

query: Return value of relative viability for input COc1cc2nccc(Oc3ccc(NC(=O)Nc4cc(C)on4)c(Cl)c3)c2cc1OC [Tivozanib] + Nc1ncn([C@H]2C[C@H](O)[C@@H](CO)O2)c(=O)n1 [Decitabine] (partner 2 µM) , no commentary.
result: 0.223

query: Return value of relative viability for input Nc1ccn([C@@H]2O[C@H](CO)[C@@H](O)[C@@H]2O)c(=O)n1 [Cytarabine] + NC(=O)Nc1cc(-c2cccc(F)c2)sc1C(=O)N[C@H]1CCCNC1 [AZD7762] (partner 0.2 µM) , no commentary.
result: 0.0888

query: Return value of relative viability for input COc1cc2nccc(Oc3ccc(NC(=O)Nc4cc(C)on4)c(Cl)c3)c2cc1OC [Tivozanib] + Cc1cc(Nc2cc(N3CCN(C)CC3)nc(Sc3ccc(NC(=O)C4CC4)cc3)n2)n[nH]1 [Tozasertib] (partner 0.1 µM) , no commentary.
result: 0.362

query: Return value of relative viability for input COc1cc2nccc(Oc3ccc(NC(=O)Nc4cc(C)on4)c(Cl)c3)c2cc1OC [Tivozanib] + Cc1nc(NC(=O)N2CCC[C@H]2C(N)=O)sc1-c1ccnc(C(C)(C)C(F)(F)F)c1 [Alpelisib] (partner 2 µM) , no commentary.
result: 0.901

###

test system: NCI-H1993; experiment: relative viability (nuclei count vs DMSO), 5 days (fraction); higher = more cells survive; details: first compound 0.1581 µM
Can you tell me relative viability for the items I'm about to list?
Lab note: jot down the number only; don't add units.

query: State relative viability on NCI-H1993. Entry: COc1cc2nccc(Oc3ccc(NC(=O)Nc4cc(C)on4)c(Cl)c3)c2cc1OC [Tivozanib] + Cc1nc(Nc2ncc(C(=O)Nc3c(C)cccc3Cl)s2)cc(N2CCN(CCO)CC2)n1 [Dasatinib] (partner 0.075 µM)
result: 0.496

query: State relative viability on NCI-H1993. Entry: Nc1ccn([C@@H]2O[C@H](CO)[C@@H](O)[C@@H]2O)c(=O)n1 [Cytarabine] + O=C(c1cc(Cc2n[nH]c(=O)c3ccccc23)ccc1F)N1CCN(C(=O)C2CC2)CC1 [Olaparib] (partner 8 µM)
result: 0.727

###

Can you tell me relative viability for the items I'm about to list?
tested on: NCI-H1792; experiment: relative viability (nuclei count vs DMSO), 5 days (fraction); higher = more cells survive; details: first compound 8 µM
Lab note: jot down the number only; don't add units.

query: Return value of relative viability for input O=c1[nH]c2ccccc2n1C1CCN(CCCC(c2ccc(F)cc2)c2ccc(F)cc2)CC1 [Pimozide] + C[C@@H](Oc1cc(-c2cnn(C3CCNCC3)c2)cnc1N)c1c(Cl)ccc(F)c1Cl [Crizotinib] (partner 1 µM) , no commentary.
result: 0.971

query: Return value of relative viability for input O=c1[nH]c2ccccc2n1C1CCN(CCCC(c2ccc(F)cc2)c2ccc(F)cc2)CC1 [Pimozide] + O=C(c1cc(Cc2n[nH]c(=O)c3ccccc23)ccc1F)N1CCN(C(=O)C2CC2)CC1 [Olaparib] (partner 8 µM) , no commentary.
result: 0.375

query: Return value of relative viability for input O=c1[nH]c2ccccc2n1C1CCN(CCCC(c2ccc(F)cc2)c2ccc(F)cc2)CC1 [Pimozide] + COc1cccc2cc(-c3nc([C@H]4CC[C@H](C(=O)O)CC4)n4ncnc(N)c34)[nH]c12 [OSI-027] (partner 0.5 µM) , no commentary.
result: 0.736

query: Return value of relative viability for input O=c1[nH]c2ccccc2n1C1CCN(CCCC(c2ccc(F)cc2)c2ccc(F)cc2)CC1 [Pimozide] + Cc1nc(NC(=O)N2CCC[C@H]2C(N)=O)sc1-c1ccnc(C(C)(C)C(F)(F)F)c1 [Alpelisib] (partner 2 µM) , no commentary.
result: 0.836

###

system: SK-MES-1; test: relative viability (nuclei count vs DMSO), 5 days (fraction); higher = more cells survive; conditions: first compound 0.006325 µM
MEASURED_QUANTITY: relative viability
Lab note: jot down the number only; don't add units.

query: Return value of relative viability for input CC(=O)O[C@@]12CO[C@@H]1C[C@H](O)[C@@]1(C)C(=O)[C@H](O)C3=C(C)[C@@H](OC(=O)[C@H](O)[C@@H](NC(=O)OC(C)(C)C)c4ccccc4)C[C@@](O)([C@@H](OC(=O)c4ccccc4)[C@H]21)C3(C)C [Docetaxel] + COc1cc2c(Oc3ccc(NC(=O)C4(C(=O)Nc5ccc(F)cc5)CC4)cc3F)ccnc2cc1OCCCN1CCOCC1 [Foretinib] (partner 0.25 µM) , no commentary.
result: 0.368

###

system: NCI-H520; experiment: relative viability (nuclei count vs DMSO), 5 days (fraction); higher = more cells survive; conditions: first compound 0.8 µM
MEASURED_QUANTITY: relative viability
Lab note: jot down the number only; don't add units.

query: State relative viability on NCI-H520. Entry: Cc1cnc(-c2cnc(NCCNc3ccc(C#N)cn3)nc2-c2ccc(Cl)cc2Cl)[nH]1 + Cc1nc(NC(=O)N2CCC[C@H]2C(N)=O)sc1-c1ccnc(C(C)(C)C(F)(F)F)c1 [Alpelisib] (partner 2 µM)
result: 1.11

query: State relative viability on NCI-H520. Entry: O=c1[nH]c2ccccc2n1C1CCN(CCCC(c2ccc(F)cc2)c2ccc(F)cc2)CC1 [Pimozide] + Nc1ncn([C@H]2C[C@H](O)[C@@H](CO)O2)c(=O)n1 [Decitabine] (partner 2 µM)
result: 0.453

query: State relative viability on NCI-H520. Entry: O=c1[nH]c2ccccc2n1C1CCN(CCCC(c2ccc(F)cc2)c2ccc(F)cc2)CC1 [Pimozide] + CCNC(=O)c1noc(-c2cc(C(C)C)c(O)cc2O)c1-c1ccc(CN2CCOCC2)cc1 [Luminespib] (partner 0.01 µM)
result: 0.194

query: State relative viability on NCI-H520. Entry: Cc1cnc(-c2cnc(NCCNc3ccc(C#N)cn3)nc2-c2ccc(Cl)cc2Cl)[nH]1 + CCNC(=O)c1noc(-c2cc(C(C)C)c(O)cc2O)c1-c1ccc(CN2CCOCC2)cc1 [Luminespib] (partner 0.01 µM)
result: 0.227

query: State relative viability on NCI-H520. Entry: Cc1cnc(-c2cnc(NCCNc3ccc(C#N)cn3)nc2-c2ccc(Cl)cc2Cl)[nH]1 + N=C(N)NC(=N)NCCc1ccccc1 [Phenformin] (partner 250 µM)
result: 0.542

###

Can you tell me relative viability for the items I'm about to list?
system: EKVX; assay: relative viability (nuclei count vs DMSO), 5 days (fraction); higher = more cells survive; details: first compound 4 µM
Lab note: jot down the number only; don't add units.

query: Return value of relative viability for input Cc1sc2c(c1C)C(c1ccc(Cl)cc1)=N[C@@H](CC(=O)OC(C)(C)C)c1nnc(C)n1-2 [JQ1] + Cc1cc(Nc2cc(N3CCN(C)CC3)nc(Sc3ccc(NC(=O)C4CC4)cc3)n2)n[nH]1 [Tozasertib] (partner 0.1 µM) , no commentary.
result: 0.185

query: Return value of relative viability for input Cc1sc2c(c1C)C(c1ccc(Cl)cc1)=N[C@@H](CC(=O)OC(C)(C)C)c1nnc(C)n1-2 [JQ1] + C[C@]1(O)C[C@@H](c2nc(-c3ccc4ccc(-c5ccccc5)nc4c3)c3c(N)nccn32)C1 [Linsitinib] (partner 1 µM) , no commentary.
result: 0.461

query: Return value of relative viability for input Cc1sc2c(c1C)C(c1ccc(Cl)cc1)=N[C@@H](CC(=O)OC(C)(C)C)c1nnc(C)n1-2 [JQ1] + C[C@@H](Oc1cc(-c2cnn(C3CCNCC3)c2)cnc1N)c1c(Cl)ccc(F)c1Cl [Crizotinib] (partner 1 µM) , no commentary.
result: 0.489

query: Return value of relative viability for input Cc1sc2c(c1C)C(c1ccc(Cl)cc1)=N[C@@H](CC(=O)OC(C)(C)C)c1nnc(C)n1-2 [JQ1] + N=C(N)NC(=N)NCCc1ccccc1 [Phenformin] (partner 250 µM) , no commentary.
result: 0.218
